experiment: recombinant UMI read abundance after kanamycin selection (control-corrected) (log10(CPM+1)); higher = more efficient recombination; extreme values may be limits of the assay; sequences stand for … in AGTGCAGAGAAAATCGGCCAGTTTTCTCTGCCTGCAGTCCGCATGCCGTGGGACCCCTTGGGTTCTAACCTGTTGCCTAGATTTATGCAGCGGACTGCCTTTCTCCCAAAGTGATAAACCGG…AGGTTGGTTTCACT; site = the 11-nt donor;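 also: IS621 bridge recombinase in Escherichia coli cells against a fixed T5 target plasmid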
I'd appreciate it if you could supply recombinant UMI read abundance (log10) values for the items below.
Answers are plain numbers.

Your task in this section: give recombinant UMI read abundance (log10) for each listed record.
1. TGTTCTTCATGGACCGGTTTTCCCGGTAATCCGTATTTGCC (site TGTTCTTCTGG)
2. CAAGTAACATGGACCGGTTTTCCCGGTAATCCGTATTTGAC (site CAAGTAACTGT)
3. TCTTTACCATGGACCGGTTTTCCCGGTAATCCGTATTTGGG (site TCTTTACCTCC)
4. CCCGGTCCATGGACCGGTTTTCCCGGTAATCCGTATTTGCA (site CCCCGTCCTTG)
5. GCAAAAACATGGACCGGTTTTCCCGGTAATCCGTATTTGCT (site GCCAAAACTAG)
6. CTCCCTACATGGACCGGTTTTCCCGGTAATCCGTATTTGAC (site CTCCCTACTGT)
7. GTTAAGGCATGGACCGGTTTTCCCGGTAATCCGTATTTGTC (site GTTAAGGCTGA)

1. 1.21
2. 3.09
3. 0.0231
4. 0.0143
5. 0
6. 1.88
7. 2.82

Your task in this section: give recombinant UMI read abundance (log10) for each listed record.
1. TCTGCTACATGGACCGGTTTTCCCGGTAATCCGTATTTGGT (site TCTGCTACTAC)
2. TCATAGTCATGGACCGGTTTTCCCGGTAATCCGTATTTGCA (site TCATATTCTTG)

0.0161
0

Your task in this section: give recombinant UMI read abundance (log10) for each listed record.
1. TCAGGGACATGGACCGGTTTTCCCGGTAATCCGTATTTGCG (site TCAGAGACTCG)
2. ACAGATACATGGACCGGTTTTCCCGGTAATCCGTATTTGCC (site ACAGATACTGG)
3. CGCAAGACATGGACCGGTTTTCCCGGTAATCCGTATTTGGT (site CGCAAGACTAC)
4. GGTCCGTCATGGACCGGTTTTCCCGGTAATCCGTATTTGTT (site GGTGCGTCTAA)
5. TCCCCAACATGGACCGGTTTTCCCGGTAATCCGTATTTGTC (site TCCCCAACTGA)

[0.74, 1.19, 1.19, 0.0122, 0]

Your task in this section: give recombinant UMI read abundance (log10) for each listed record.
1. AAAAGTCCATGGACCGGTTTTCCCGGTAATCCGTATTTGTA (site CAAAGTCCTTA)
2. CTACTGACATGGACCGGTTTTCCCGGTAATCCGTATTTGGA (site CTACTTACTTC)
3. GCAATTACATGGACCGGTTTTCCCGGTAATCCGTATTTGTC (site GCAATTACTGA)
4. GCACATCCATGGACCGGTTTTCCCGGTAATCCGTATTTGAC (site TCACATCCTGT)

[0.48, 0.67, 0.939, 0.745]

Data origin, for the record: the supplement of paper PMC11208160
